The reported numbers originate from patent US20230391852A1.

- measured.target: SARS-CoV-2 RBD (SARS-CoV-2, UniProt P0DTC2 319-541)
- test.description: monoclonal VHH phage clone binding screen (FIG. 3A)
property.label: binding result

- binder: "NCI-CoV-3E5 (VHH) VHH: EVQLVESGGGLVQPGGSLRLSCAASGFAFSSTRMHWVRQAPGVGLEWVSFIDRTDGGIISYADSVRGRFTISRDNAKNTVYLQMDRLNAEDTAVYYCLKEGPYLDYWDAWGQGTQVTVSS"
  property.label: "binding result"
  result: "binds"
- binder: "NCI-CoV-2F5 (VHH) VHH: QVQLVESGGGLVQPGGSLKLSCTASGFTFSSYNMSWVRQAPGKGLKWVSMIRSDGSNTYYLDSVKGRFTISRDNAKNTVYLQMNSLEPGDTAVYYCVAGRHATYWGQGTQVTVSS"
  property.label: "binding result"
  result: "binds"
